Reference for the values: ChEMBL document CHEMBL1121900

- targetEntity: Opioid receptor (Rattus norvegicus) (UniProt P33533+P34975+P33535)
- Sequence (P33533 whole entry, looked up): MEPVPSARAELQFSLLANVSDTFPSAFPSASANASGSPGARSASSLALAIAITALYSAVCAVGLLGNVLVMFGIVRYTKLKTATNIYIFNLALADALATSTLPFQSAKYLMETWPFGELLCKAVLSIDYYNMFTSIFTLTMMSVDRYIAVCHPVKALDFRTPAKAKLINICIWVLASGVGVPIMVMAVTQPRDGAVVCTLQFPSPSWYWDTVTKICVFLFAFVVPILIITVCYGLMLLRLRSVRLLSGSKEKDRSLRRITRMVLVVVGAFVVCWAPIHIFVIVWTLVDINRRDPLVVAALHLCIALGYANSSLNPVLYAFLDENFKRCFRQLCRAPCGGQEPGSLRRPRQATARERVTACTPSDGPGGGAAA
- Sequence (P33535 whole entry, looked up): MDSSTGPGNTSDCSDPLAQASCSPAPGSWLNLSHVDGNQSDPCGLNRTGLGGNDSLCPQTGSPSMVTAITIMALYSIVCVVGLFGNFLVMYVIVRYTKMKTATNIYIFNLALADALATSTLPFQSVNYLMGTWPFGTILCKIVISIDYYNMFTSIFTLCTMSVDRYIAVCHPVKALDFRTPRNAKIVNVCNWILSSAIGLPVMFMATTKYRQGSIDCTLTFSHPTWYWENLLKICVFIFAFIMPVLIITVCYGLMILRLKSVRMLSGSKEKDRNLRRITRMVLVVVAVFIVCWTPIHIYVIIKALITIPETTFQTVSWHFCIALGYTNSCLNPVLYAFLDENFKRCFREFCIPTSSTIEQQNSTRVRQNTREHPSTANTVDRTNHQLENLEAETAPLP
- Sequence (P34975 whole entry, looked up): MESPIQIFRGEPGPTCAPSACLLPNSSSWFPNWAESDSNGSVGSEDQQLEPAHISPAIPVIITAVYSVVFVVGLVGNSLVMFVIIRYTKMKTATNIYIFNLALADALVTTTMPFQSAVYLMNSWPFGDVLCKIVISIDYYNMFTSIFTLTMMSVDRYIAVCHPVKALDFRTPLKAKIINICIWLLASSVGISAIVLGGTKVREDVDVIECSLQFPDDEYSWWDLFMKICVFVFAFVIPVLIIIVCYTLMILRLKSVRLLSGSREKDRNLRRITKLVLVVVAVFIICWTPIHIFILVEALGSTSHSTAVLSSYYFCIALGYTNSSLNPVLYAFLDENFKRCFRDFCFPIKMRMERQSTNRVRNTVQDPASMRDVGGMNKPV
- procedureSummary: Inhibition of morphine analgesia in modified rat tail flick test.
- Assay type: functional
Recorded log10 of ED50, one value per entry.
Values reflect log10 of reported ED50 (µmol/kg).

QUERY: Please look up its log10 of ED50: C[C@H]1[C@H]2Cc3ccc(O)cc3[C@]1(C)CCN2CC1CC1
RESULT: -0.09

QUERY: Same read-out for C=C1CCC2C3Cc4ccc(O)cc4C2(CCN3CC2CC2)C1 (stereo not given) ?
RESULT: -0.43

QUERY: Same read-out for COc1ccc2c(c1)C13CCN(CC4CCC4)C(C2)C1[C@@H](C)CC(=O)C3 (stereo not given in full) ?
RESULT: 1.21

QUERY: Same read-out for C=C1C[C@H](CC)C2C3Cc4ccc(O)cc4C2(CCN3CC2CC2)C1 (stereo not given in full) ?
RESULT: 0.45

QUERY: Same read-out for C=C1C[C@H](C)C2C3Cc4ccc(O)cc4C2(CCN3CC2CC2)C1 (stereo not given in full) ?
RESULT: -0.05

***
QUERY: Please look up its log10 of ED50: CC[C@H]1CC(=O)CC23CCN(CC4CCC4)C(Cc4ccc(O)cc42)C13 (stereo not given in full)
RESULT: -0.09

QUERY: Same read-out for C=CCN1CC[C@]23c4c5ccc(O)c4O[C@H]2[C@@H](O)C=C[C@H]3[C@H]1C5 ?
RESULT: 0.40

QUERY: Same read-out for CC(C)=CCN1CC[C@]2(C)c3cc(O)ccc3C[C@H]1[C@H]2C [(+)-PENTAZOCINE] ?
RESULT: 1.56

QUERY: Same read-out for C[C@H]1CC(=O)CC23CCN(CC4CC4)C(Cc4ccc(O)cc42)C13 (stereo not given in full) ?
RESULT: 0.26

QUERY: Same read-out for C=C1C[C@H](C)C2C3Cc4ccc(OC)cc4C2(CCN3CC2CCC2)C1 (stereo not given in full) ?
RESULT: 1.15

QUERY: Same read-out for C[C@H]1CC(=O)CC23CCN(CC4CCC4)C(Cc4ccc(O)cc42)C13 (stereo not given in full) ?
RESULT: 0.45

QUERY: Same read-out for C=C1C[C@H](CC)C2C3Cc4ccc(O)cc4C2(CCN3CC2CCC2)C1 (stereo not given in full) ?
RESULT: 1.33

QUERY: Same read-out for C=C1C[C@H](C)C2C3Cc4ccc(OC)cc4C2(CCN3CC2CC2)C1 (stereo not given in full) ?
RESULT: 1.05

QUERY: Same read-out for C=C1C[C@H](C)C2C3Cc4ccc(O)cc4C2(CCN3CC2CCC2)C1 (stereo not given in full) ?
RESULT: 0.40
